Give measured IC50, FLIPR calcium mobilisation for each item. Keep answers brief.
target: mouse nerve growth factor (mouse, UniProt P01139 122-241); experiment: cell-based or functional assay
Sequence (P01139 122-241): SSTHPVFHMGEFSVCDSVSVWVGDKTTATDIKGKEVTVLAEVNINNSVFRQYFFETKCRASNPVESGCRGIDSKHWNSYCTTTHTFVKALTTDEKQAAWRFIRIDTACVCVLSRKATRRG
Numbers only, in nM.

Reference set (2 entries):
Binder	Output unit	Value measured
G1152H5 human IgG4 (antibody, V domains shown, tested as whole human IgG4; also called germlined 1152H5) VH: QVQLVQSGAEVKKPGSSVKVSCKASGGTFSTYGISWVRQAPGQGLEWMGGIIPIFDTGNSAQSFQGRVTITADESTSTAYMELSSLRSEDTAVYYCARSSRIYDMISSLQPYYDMDVWGQGTMVTVSS VL: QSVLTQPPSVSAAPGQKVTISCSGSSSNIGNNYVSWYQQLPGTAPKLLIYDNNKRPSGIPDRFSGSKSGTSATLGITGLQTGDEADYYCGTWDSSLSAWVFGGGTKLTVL	nM	0.18
1158A1 human IgG4 (antibody, V domains shown) VH: EVQLVQSGAEVKKPGSSVKVSCKASGGTFSTYGISWVRQAPGQGLEWIGGIIPIFGTGNSAQSFQGRVTITADESTSTAYMEVSSLRSDDTAVYYCASSSRIYDHHNHVGGYYDMDVWGQGTMVTVSS VL: QAVLTQPSSVSTPPGQKVTISCSGSSSNIGNNYASWYQQLPGTAPKLLIYDNNKRPSGIPDRFSGSKSGTSATLGITGLQTGDEADYYCGTWDGSLSAWVFGGGTKLTVL	nM	0.11

Moving on to another binder below.
Query block: State the recorded IC50, FLIPR calcium mobilisation for this entry: 1214A1 human IgG4 (antibody, V domains shown) VH: EVQLVQSGAEVKKPGSSVRVSCKASGGTFSTYGISWVRQAPGQGLEWIGGIIPIFDTGNSAQSFQGRVTITADESTSTAYMEVSSLRSDDTAVYYCASSSRIYDAHLQAYYDMDVWGQGTMVTVSS VL: QAVLTQPSSVSTPPGQKVTISCSGSSSNIGNNYVSWYQQLPGTAPKLLIYDNNKRPPGIPDRFSGSKSGTSATLGITGLQTGDEADYYCGTRDSSLSAWVFGGGTKLTVL
Result block: 0.14
